Every entry's value here was drawn from patent US20230355720A1.

# MEASUREMENT TARGET: human GLP-1 receptor (human, UniProt P43220 24-463)
# PROCEDURE TEXT: cell-based or functional assay
Bridge positions count the residues as written; N and C are the ends. Square brackets hold non-standard residues; d marks the D form. Ends that are not written are not given here. Aib = CC(C)(N)C(=O)O
ENDPOINT LABEL: In vitro activity (%) compared with native peptide, vs GLP-1
The reply should contain only the number, in %.

Below: 4 binders and their reported In vitro activity (%) compared with native peptide, vs GLP-1.
>>> print(df.to_string())
                                     binder  result_value
0  H[Aib]QGTFTSDYSKYLDEKRQKEFVNWLLAQKC (bridge 16-20) [triple agonist of SEQ ID NO: 34]          19.1
1  H[Aib]QGTFTSDVSSYLLGQAAKQFIAWLVKGGGPSSGAPPPSC (not fully specified) [triple agonist of SEQ ID NO: 3]           1.8
2  Y[Aib]QGTFTSDYSKYLDECRAKEFVQWLLAQKGKKNDWKHNIT (bridge 16-20; not fully specified) [triple agonist of SEQ ID NO: 23]          4.01
3  H[Aib]QGTFTSDVSKYLDGQAAKEFVAWLLKGC [triple agonist of SEQ ID NO: 7]          13.7

Measured In vitro activity (%) compared with native peptide, vs GLP-1 of H[Aib]QGTFTSDYSKYLDEKRAQEFVCWLLAQKGKKNDWKHNIT (not fully specified) [triple agonist of SEQ ID NO: 28] : 17.2
